Emax: recorded values
target: human P2X4 (Homo sapiens, UniProt Q99571); assay: Human P2X4 HEK Cell FLIPR Assay; assay type: cell-based; conditions: HEK293, HEK293 cells, agonist Bz-ATP at EC80; percentage of maximal inhibition; read-out: Human P2X4 HEK Cells (FLIPR Assay) avg Efficacy [%]
READOUT: Emax (%)

[[record]]
query_smiles = "CC(C)c1ccccc1CC(=O)Nc1ccc(-n2cc(Cl)cn2)c(S(N)(=O)=O)c1"
readout = "Emax"
quantitative_result = 86

[[record]]
query_smiles = "NS(=O)(=O)c1cc(NC(=O)Cc2ccncc2Cl)ccc1-c1cnn(C(F)F)c1"
readout = "Emax"
quantitative_result = 90

[[record]]
query_smiles = "NS(=O)(=O)c1cc(NC(=O)Cc2ccccc2Cl)ccc1-n1cnc(C(F)(F)F)n1"
readout = "Emax"
quantitative_result = 73

[[record]]
query_smiles = "NS(=O)(=O)c1cc(NC(=O)Cc2ccccc2C(F)(F)F)ccc1-n1cc(C(F)(F)F)cn1"
readout = "Emax"
quantitative_result = 76

[[record]]
query_smiles = "Cc1nnc(-c2ccc(NC(=O)Cc3ccccc3F)cc2S(N)(=O)=O)o1"
readout = "Emax"
quantitative_result = 72

[[record]]
query_smiles = "NS(=O)(=O)c1cc(NC(=O)Cc2ccccc2Cl)ccc1-n1cc(-c2ccccn2)cn1"
readout = "Emax"
quantitative_result = 85

[[record]]
query_smiles = "CC(C)(C)c1cn(-c2ccc(NC(=O)Cc3ccccc3Cl)cc2S(N)(=O)=O)cn1"
readout = "Emax"
quantitative_result = 90

[[record]]
query_smiles = "Cc1cccc(CC(=O)Nc2ccc(-n3cc(C#N)cn3)c(S(N)(=O)=O)c2)c1"
readout = "Emax"
quantitative_result = 94


---

Biological target: human P2X4 (Homo sapiens, UniProt Q99571)
Sequence (Q99571 1-388): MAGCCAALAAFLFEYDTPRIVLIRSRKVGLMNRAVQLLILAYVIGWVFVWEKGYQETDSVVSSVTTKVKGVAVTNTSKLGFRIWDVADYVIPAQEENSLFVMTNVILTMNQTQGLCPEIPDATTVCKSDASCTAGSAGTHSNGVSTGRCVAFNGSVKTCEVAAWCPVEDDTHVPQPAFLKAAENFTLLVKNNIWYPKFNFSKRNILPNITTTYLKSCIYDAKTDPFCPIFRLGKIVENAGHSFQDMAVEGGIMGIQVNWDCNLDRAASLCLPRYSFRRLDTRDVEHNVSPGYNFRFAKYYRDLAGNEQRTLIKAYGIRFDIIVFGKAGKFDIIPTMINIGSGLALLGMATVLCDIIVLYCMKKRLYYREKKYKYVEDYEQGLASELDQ
Assay: Human P2X4 HEK Cell FLIPR Assay
Type: cell-based
Details: HEK293, HEK293 cells, agonist Bz-ATP at EC80; percentage of maximal inhibition; read-out: Human P2X4 HEK Cells (FLIPR Assay) avg Efficacy [%]
Quick reference for Emax among some compounds
READOUT: Emax (%)

[[record]]
compound = "NS(=O)(=O)c1cc(NC(=O)Cc2ccc(Cl)cc2Cl)ccc1-c1cncc(C(F)(F)F)c1"
output_unit = "%"
quantitative_result = 63

[[record]]
compound = "NS(=O)(=O)c1cc(NC(=O)Cc2ccccc2Cl)ccc1-n1ccc(C(F)F)n1"
output_unit = "%"
quantitative_result = 34

[[record]]
compound = "N#Cc1cnn(-c2ccc(NC(=O)Cc3ccncc3Cl)cc2S(N)(=O)=O)c1"
output_unit = "%"
quantitative_result = 92

[[record]]
compound = "NS(=O)(=O)c1cc(NC(=O)Cc2ccccc2Cl)ccc1-n1cnc(C(F)F)n1"
output_unit = "%"
quantitative_result = 89

[[record]]
compound = "CC(C)(O)CCn1cc(-c2ccc(NC(=O)Cc3ccccc3Cl)cc2S(N)(=O)=O)cn1"
output_unit = "%"
quantitative_result = 78

[[record]]
compound = "NS(=O)(=O)c1cc(NC(=O)Cc2ccccc2Cl)ccc1-n1ncc2cnccc21"
output_unit = "%"
quantitative_result = 92

[[record]]
compound = "Cc1ncnn1-c1ccc(NC(=O)Cc2ccccc2Cl)cc1S(N)(=O)=O"
output_unit = "%"
quantitative_result = 84

[[record]]
compound = "NS(=O)(=O)c1cc(NC(=O)Cc2ccc(F)cc2Cl)ccc1-n1cc(Br)cn1"
output_unit = "%"
quantitative_result = 75

[[record]]
compound = "NS(=O)(=O)c1cc(NC(=O)Cc2ccccc2OC(F)(F)F)ccc1-n1cc(Cl)cn1"
output_unit = "%"
quantitative_result = 92

[[record]]
compound = "NS(=O)(=O)c1cc(NC(=O)Cc2ccccc2Cl)c(C(F)(F)F)cc1-n1cc(C(F)(F)F)cn1"
output_unit = "%"
quantitative_result = 60

[[record]]
compound = "NS(=O)(=O)c1cc(NC(=O)Cc2ccccc2O)ccc1-n1cc(Cl)cn1"
output_unit = "%"
quantitative_result = 92

[[record]]
compound = "NS(=O)(=O)c1cc(NC(=O)C(O)c2ccccc2Cl)ccc1-n1cc(C(F)(F)F)cn1 (centres unmarked)"
output_unit = "%"
quantitative_result = 50

[[record]]
compound = "NS(=O)(=O)c1cc(NC(=O)Cc2c(Cl)cccc2Cl)ccc1-n1cc(C(F)(F)F)cn1"
output_unit = "%"
quantitative_result = 75

[[record]]
compound = "N#Cc1cncc(-c2ccc(NC(=O)Cc3ccccc3Cl)cc2S(N)(=O)=O)c1"
output_unit = "%"
quantitative_result = 80

[[record]]
compound = "NS(=O)(=O)c1cc(NC(=O)Cc2cccc(F)c2)ccc1-c1ccc(Cl)nc1"
output_unit = "%"
quantitative_result = 92

[[record]]
compound = "NS(=O)(=O)c1cc(NC(=O)Cc2ccc(F)cc2Cl)ccc1-n1cnc(C(F)(F)F)n1"
output_unit = "%"
quantitative_result = 70

[[record]]
compound = "COc1ccccc1CC(=O)Nc1ccc(-n2cc(C#N)cn2)c(S(N)(=O)=O)c1"
output_unit = "%"
quantitative_result = 89


---

Target: human P2X4 (Homo sapiens, UniProt Q99571)
Sequence (Q99571 1-388): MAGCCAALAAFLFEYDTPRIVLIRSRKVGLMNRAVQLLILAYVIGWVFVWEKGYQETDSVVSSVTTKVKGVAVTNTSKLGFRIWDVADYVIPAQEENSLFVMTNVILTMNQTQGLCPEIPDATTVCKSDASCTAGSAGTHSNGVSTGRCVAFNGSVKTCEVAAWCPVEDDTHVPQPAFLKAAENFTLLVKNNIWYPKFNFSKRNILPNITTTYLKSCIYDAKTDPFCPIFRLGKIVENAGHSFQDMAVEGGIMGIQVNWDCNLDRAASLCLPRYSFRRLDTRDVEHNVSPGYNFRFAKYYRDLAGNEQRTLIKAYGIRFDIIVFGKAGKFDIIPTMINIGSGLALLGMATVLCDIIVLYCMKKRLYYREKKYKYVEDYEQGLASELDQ
Test: Human P2X4 HEK Cell FLIPR Assay
Type: cell-based
Conditions: HEK293, HEK293 cells, agonist Bz-ATP at EC80; percentage of maximal inhibition; read-out: Human P2X4 HEK Cells (FLIPR Assay) avg Efficacy [%]
Answer class 0 if Emax is under 80%, and class 1 if it is 80% or more.

[[record]]
molecule = "NS(=O)(=O)c1cc(NC(=O)Cc2ccccc2F)ccc1-n1cccn1 [Example 393]"
cat = "class 0"

[[record]]
molecule = "CC(C)(O)c1cccc(-c2ccc(NC(=O)Cc3ccccc3Cl)cc2S(N)(=O)=O)c1 [Example 342]"
cat = "class 1"

[[record]]
molecule = "COc1ccc(CC(=O)Nc2ccc(-n3cc(Cl)cn3)c(S(N)(=O)=O)c2)c(Cl)c1 [Example 94]"
cat = "class 0"

[[record]]
molecule = "NS(=O)(=O)c1cc(NC(=O)Cc2c(Cl)cccc2C(F)(F)F)ccc1-n1cc(C(F)(F)F)cn1 [Example 134]"
cat = "class 1"

[[record]]
molecule = "NS(=O)(=O)c1cc(NC(=O)Cc2cc(F)cc(F)c2)ccc1-n1cc(Cl)cn1 [Example 83]"
cat = "class 0"

[[record]]
molecule = "CC(C(=O)Nc1ccc(-n2cc(Cl)cn2)c(S(N)(=O)=O)c1)c1c(F)cccc1F (centres unmarked) [Example 106]"
cat = "class 1"


---

Molecular target: human P2X4 (Homo sapiens, UniProt Q99571)
Sequence (Q99571 1-388): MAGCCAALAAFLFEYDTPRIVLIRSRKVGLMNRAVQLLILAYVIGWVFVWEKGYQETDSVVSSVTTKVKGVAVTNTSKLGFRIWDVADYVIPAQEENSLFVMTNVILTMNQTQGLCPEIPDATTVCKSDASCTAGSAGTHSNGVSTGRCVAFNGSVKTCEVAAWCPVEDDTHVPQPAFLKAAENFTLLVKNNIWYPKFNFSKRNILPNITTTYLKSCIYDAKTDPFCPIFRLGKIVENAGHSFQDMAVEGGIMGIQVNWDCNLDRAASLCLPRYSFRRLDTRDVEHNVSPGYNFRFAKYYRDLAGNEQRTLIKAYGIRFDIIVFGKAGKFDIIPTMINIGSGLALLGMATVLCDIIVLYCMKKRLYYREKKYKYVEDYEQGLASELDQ
Experiment: Human P2X4 HEK Cell FLIPR Assay
Type: cell-based
Conditions: HEK293, HEK293 cells, agonist Bz-ATP at EC80; percentage of maximal inhibition; read-out: Human P2X4 HEK Cells (FLIPR Assay) avg Efficacy [%]
READOUT: Emax (%)

[[record]]
compound = "NS(=O)(=O)c1cc(NC(=O)Cc2ccc(F)c(F)c2)ccc1-n1cc(C(F)(F)F)cn1 [Example 118]"
output_unit = "%"
quantitative_result = 53

[[record]]
compound = "Cc1ncsc1-c1ccc(NC(=O)Cc2ccccc2Cl)cc1S(N)(=O)=O [Example 504]"
output_unit = "%"
quantitative_result = 98

[[record]]
compound = "NS(=O)(=O)c1cc(NC(=O)Cc2ccccc2Cl)c(F)cc1-c1cnn(C(F)F)c1 [Example 494]"
output_unit = "%"
quantitative_result = 94

[[record]]
compound = "COc1ccc(CC(=O)Nc2ccc(-n3ncc(C(F)(F)F)n3)c(S(N)(=O)=O)c2)cc1 [Example 406]"
output_unit = "%"
quantitative_result = 64

